TESTED ON: T1, human MSLN-R3-his protein (human, UniProt Q13421 487-598)
T1 construct: Self-made in HEK293E cells; also called human MSLN-R3 protein; hMSLN-R3-his; not shown: His tag
T1 sequence (Q13421 495-606): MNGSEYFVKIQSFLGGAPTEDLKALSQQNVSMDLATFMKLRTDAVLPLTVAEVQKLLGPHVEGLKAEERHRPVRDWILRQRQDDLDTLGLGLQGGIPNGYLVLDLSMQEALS
TEST DETAILS: ELISA on coated antigen, antibody 0.0001 nM
PROPERTY NAME: OD450 (OD450)
Kindly answer with a numeric value in OD450, unit omitted.

Recorded OD450, per entry:
BINDER | PROPERTY NAME | UNITS TEXT | MEASURED RESULT
S009-F2.39.3 (antibody, human IgG1, kappa, V domains shown, Human-murine chimeric antibody: murine VH/VL on human IgG1 heavy and kappa light constant regions) VH: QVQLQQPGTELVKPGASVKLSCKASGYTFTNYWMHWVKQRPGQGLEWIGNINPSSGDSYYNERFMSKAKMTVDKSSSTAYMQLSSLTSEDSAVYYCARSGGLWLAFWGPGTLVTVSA VL: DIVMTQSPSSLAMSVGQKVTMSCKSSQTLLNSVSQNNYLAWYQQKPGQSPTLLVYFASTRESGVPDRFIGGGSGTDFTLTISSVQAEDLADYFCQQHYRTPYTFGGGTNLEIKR | OD450 | OD450 | 0.05
S009-F2.23.12 (antibody, human IgG1, kappa, V domains shown, Human-murine chimeric antibody: murine VH/VL on human IgG1 heavy and kappa light constant regions) VH: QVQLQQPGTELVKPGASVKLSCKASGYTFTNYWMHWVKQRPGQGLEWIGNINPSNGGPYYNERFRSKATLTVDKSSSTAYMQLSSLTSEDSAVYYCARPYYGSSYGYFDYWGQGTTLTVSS VL: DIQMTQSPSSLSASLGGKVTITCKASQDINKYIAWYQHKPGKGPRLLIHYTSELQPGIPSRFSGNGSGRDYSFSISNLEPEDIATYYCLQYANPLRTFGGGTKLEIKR | OD450 | OD450 | 0.05
S009-F2-56.12 (antibody, human IgG1, kappa, V domains shown, Human-murine chimeric antibody: murine VH/VL on human IgG1 heavy and kappa light constant regions) VH: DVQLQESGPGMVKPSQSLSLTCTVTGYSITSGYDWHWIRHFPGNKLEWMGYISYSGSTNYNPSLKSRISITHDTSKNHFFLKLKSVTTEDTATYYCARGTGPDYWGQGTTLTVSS VL: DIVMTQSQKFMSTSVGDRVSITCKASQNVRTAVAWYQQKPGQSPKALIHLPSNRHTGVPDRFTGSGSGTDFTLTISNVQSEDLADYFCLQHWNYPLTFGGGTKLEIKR | OD450 | OD450 | 0.05
S009-F2.58.8 (antibody, human IgG1, kappa, V domains shown, Human-murine chimeric antibody: murine VH/VL on human IgG1 heavy and kappa light constant regions) VH: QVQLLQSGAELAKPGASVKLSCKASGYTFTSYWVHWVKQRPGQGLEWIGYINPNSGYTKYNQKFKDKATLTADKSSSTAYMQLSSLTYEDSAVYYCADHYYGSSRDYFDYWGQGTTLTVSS VL: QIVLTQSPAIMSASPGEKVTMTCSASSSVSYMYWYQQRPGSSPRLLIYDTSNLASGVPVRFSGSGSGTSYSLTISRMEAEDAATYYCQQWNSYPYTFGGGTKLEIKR | OD450 | OD450 | 0.05
S009-F2.38.12 (antibody, human IgG1, kappa, V domains shown, Human-murine chimeric antibody: murine VH/VL on human IgG1 heavy and kappa light constant regions) VH: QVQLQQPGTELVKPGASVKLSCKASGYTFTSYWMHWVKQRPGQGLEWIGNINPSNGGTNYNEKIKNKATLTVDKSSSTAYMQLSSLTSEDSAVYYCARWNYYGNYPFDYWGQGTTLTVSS VL: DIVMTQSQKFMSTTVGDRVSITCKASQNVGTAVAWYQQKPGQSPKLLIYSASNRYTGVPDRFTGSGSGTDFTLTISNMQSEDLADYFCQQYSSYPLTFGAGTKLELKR | OD450 | OD450 | 0.05

Let us examine a further case.
Prompt: Look up OD450 for this binder: S009-F2.21.4 (antibody, human IgG1, kappa, V domains shown, Human-murine chimeric antibody: murine VH/VL on human IgG1 heavy and kappa light constant regions) VH: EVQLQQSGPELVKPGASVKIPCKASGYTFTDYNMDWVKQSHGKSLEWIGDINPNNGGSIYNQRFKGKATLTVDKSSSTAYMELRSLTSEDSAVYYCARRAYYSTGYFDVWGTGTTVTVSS VL: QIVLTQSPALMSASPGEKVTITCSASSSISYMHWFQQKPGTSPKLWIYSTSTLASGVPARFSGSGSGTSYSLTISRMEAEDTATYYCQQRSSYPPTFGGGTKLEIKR
Response: 0.05
